Cited source for all entries: patent US20210145976A1

Entries and their measured HSA follow.
biological target: human serum albumin (human) (UniProt P02768); test: screening ELISA
Sequence (P02768 25-609 limits assumed): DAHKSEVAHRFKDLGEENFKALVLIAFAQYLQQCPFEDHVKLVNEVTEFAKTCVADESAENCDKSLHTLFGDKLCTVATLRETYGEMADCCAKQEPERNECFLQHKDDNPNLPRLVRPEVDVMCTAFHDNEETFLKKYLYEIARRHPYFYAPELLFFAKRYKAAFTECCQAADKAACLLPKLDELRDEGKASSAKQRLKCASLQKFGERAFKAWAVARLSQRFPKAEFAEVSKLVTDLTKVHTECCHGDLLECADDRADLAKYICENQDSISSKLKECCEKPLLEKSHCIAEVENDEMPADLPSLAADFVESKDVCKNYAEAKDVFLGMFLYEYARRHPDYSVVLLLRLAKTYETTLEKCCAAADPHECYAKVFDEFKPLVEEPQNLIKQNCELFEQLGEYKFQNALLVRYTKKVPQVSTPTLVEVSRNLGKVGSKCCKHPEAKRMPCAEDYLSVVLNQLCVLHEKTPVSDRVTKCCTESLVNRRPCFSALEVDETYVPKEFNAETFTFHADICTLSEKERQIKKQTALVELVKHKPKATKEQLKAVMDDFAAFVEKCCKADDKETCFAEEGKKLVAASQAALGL
API note: the answer field is a bare number with no unit suffix.

- binder: "SEQ ID NO 244 (designed binder) MLPAPKNLVVSRVTEDSARLSWTAPDAAFDSFHIDYSEFHLRGEAIVLTVPGSERSYDLTGLKPGTEYLGIFGVKGGEQSGPLSAIFTT"
  HSA: 1650

Asked: Which HSA is listed for SEQ ID NO 271 (designed binder) MLPAPKNLVVSRVTEDSARLSWTAPDAAFDSFYIPYAETRDDGEAIVLTVPGSERSYDLTGLKPGTEYSVLIHGVKGGDLSSPLSAIFTT ?
Given back: 3050

Asked: What does the data say about its HSA? Entry: SEQ ID NO 166 (designed binder) MLPAPKNLVVSRVTEDSARLSWTAPDAAFDSFTILYNEIQNVGEAIVLTVPGSERSYDLTGLKPGTEYDVWIEGVKGGELSWPLSAIFTT
Given back: 5050

Asked: Would you kindly share the measured HSA for SEQ ID NO 282 (designed binder) MLPAPKNLVVSRVTEDSARLSWTAPDAAFDSFAIVYHEPRPDGEAIVLTVPGSERSYDLTGLKPGTEYEVVILGVKGGVHSYPLSAIFTT ?
Given back: 18600

Asked: Query: HSA; subject: SEQ ID NO 179 (designed binder) MLPAPKNLVVSRVTEDSARLSWTAPDAAFDSFYIAYAEPRPDGEAIVLTVPGSERSYDLTGLKPGTEYPVPIPGVKGGPGSSPLSAIFTT
Given back: 74700
